- Assay method text: Therapeutic index, ratio of EC50 for hemolysis of sheep erythrocytes to MIC for Escherichia coli ATCC 8739
- Condition info: read-out: TI
Numbered stars: 1 amine (or outer) side, 2 acyl side, 3 side chain; on linkers, the order of the positions; unused ones are H or OH. Square brackets hold non-standard residues; d marks the D form. Peptide text beside a SMILES is read from it. * marks the point of attachment. X1 = CCCCCCCCC[C@H](N[*:1])C(=O)[*:2]; Decanoyl = CCCCCCCCCC(=O)*
Quantity name: selectivity ratio

Reference set (3 entries):
Molecule	Quantity name	Endpoint value
CCCCCCCCC[C@H](NC(=O)[C@H](CC(C)C)NC(=O)[C@@H](NC(=O)[C@H](CCCCN)NC(=O)[C@@H](NC(=O)[C@H](CCCNC(=N)N)NC(=O)[C@H](CCCCN)NC(=O)[C@H](CC(C)C)NC(=O)[C@H](CC(C)C)NC(=O)CN)[C@@H](C)CC)[C@@H](C)O)C(N)=O (H-GLLKRIKTL[X1]-NH2)	selectivity ratio	3.7
CCCCCCCCC[C@H](NC(=O)[C@H](CCCNC(=N)N)NC(=O)[C@H](CCCCN)NC(=O)[C@H](CC(C)C)NC(=O)[C@H](CC(C)C)NC(=O)CN)C(=O)N[C@@H](CCCCN)C(=O)N[C@H](C(=O)N[C@@H](CC(C)C)C(=O)N[C@@H](CC(C)C)C(N)=O)[C@@H](C)O (H-GLLKR[X1]KTLL-NH2)	selectivity ratio	1.9
CCCCCCCCCC(=O)NCC(=O)N[C@@H](CC(C)C)C(=O)N[C@@H](CC(C)C)C(=O)N[C@@H](CCCCN)C(=O)N[C@@H](CCCNC(=N)N)C(=O)N[C@H](C(=O)N[C@@H](CCCCN)C(=O)N[C@H](C(=O)N[C@@H](CC(C)C)C(=O)N[C@@H](CC(C)C)C(N)=O)[C@@H](C)O)[C@@H](C)CC (Decanoyl-GLLKRIKTLL-NH2)	selectivity ratio	2

Prompt line: I'd like to know its selectivity ratio. The molecule in question is CCCCCCCCC[C@H](NC(=O)CN)C(=O)N[C@@H](CC(C)C)C(=O)N[C@@H](CCCCN)C(=O)N[C@@H](CCCNC(=N)N)C(=O)N[C@H](C(=O)N[C@@H](CCCCN)C(=O)N[C@H](C(=O)N[C@@H](CC(C)C)C(=O)N[C@@H](CC(C)C)C(N)=O)[C@@H](C)O)[C@@H](C)CC (H-G[X1]LKRIKTLL-NH2)
Response line: 10.5

---

- Assay method text: Therapeutic index, ratio of EC50 for hemolysis of sheep erythrocytes to MIC for Escherichia coli ATCC 8739
- Condition info: read-out: TI
Quantity name: selectivity ratio

Prompt line: // query selectivity ratio value for entry H-GLLKRIKTLL-NH2 [ANOPLIN]
Response line: > 12.2

---

- Assay method text: Induction of membrane lysis in DOPC large unilamellar vesicles model assessed as release of carboxyfluorescein at 50 ug/mL by fluorescence spectroscopic analysis relative to control
- Type: physicochemical
Numbered stars: 1 amine (or outer) side, 2 acyl side, 3 side chain; on linkers, the order of the positions; unused ones are H or OH. Square brackets hold non-standard residues; d marks the D form. Peptide text beside a SMILES is read from it. * marks the point of attachment. X1 = CCCCCCCCC[C@H](N[*:1])C(=O)[*:2]; Decanoyl = CCCCCCCCCC(=O)*
Assignment: determine reported Activity for the given molecules.
Give bare numbers, in %.

Here's what some known entries look like.
Molecule	Activity (%)
CCCCCCCCCC(=O)NCC(=O)N[C@@H](CC(C)C)C(=O)N[C@@H](CC(C)C)C(=O)N[C@@H](CCCCN)C(=O)N[C@@H](CCCNC(=N)N)C(=O)N[C@H](C(=O)N[C@@H](CCCCN)C(=O)N[C@H](C(=O)N[C@@H](CC(C)C)C(=O)N[C@@H](CC(C)C)C(N)=O)[C@@H](C)O)[C@@H](C)CC (Decanoyl-GLLKRIKTLL-NH2)	62
CCCCCCCCC[C@H](NC(=O)[C@H](CCCNC(=N)N)NC(=O)[C@H](CCCCN)NC(=O)[C@H](CC(C)C)NC(=O)[C@H](CC(C)C)NC(=O)CN)C(=O)N[C@@H](CCCCN)C(=O)N[C@H](C(=O)N[C@@H](CC(C)C)C(=O)N[C@@H](CC(C)C)C(N)=O)[C@@H](C)O (H-GLLKR[X1]KTLL-NH2)	45

Would you mind listing Activity for each of the following molecules?
1. CCCCCCCCC[C@H](NC(=O)[C@H](CC(C)C)NC(=O)[C@@H](NC(=O)[C@H](CCCCN)NC(=O)[C@@H](NC(=O)[C@H](CCCNC(=N)N)NC(=O)[C@H](CCCCN)NC(=O)[C@H](CC(C)C)NC(=O)[C@H](CC(C)C)NC(=O)CN)[C@@H](C)CC)[C@@H](C)O)C(N)=O (H-GLLKRIKTL[X1]-NH2)
2. CCCCCCCCC[C@H](NC(=O)CN)C(=O)N[C@@H](CC(C)C)C(=O)N[C@@H](CCCCN)C(=O)N[C@@H](CCCNC(=N)N)C(=O)N[C@H](C(=O)N[C@@H](CCCCN)C(=O)N[C@H](C(=O)N[C@@H](CC(C)C)C(=O)N[C@@H](CC(C)C)C(N)=O)[C@@H](C)O)[C@@H](C)CC (H-G[X1]LKRIKTLL-NH2)

Response line:
1. 48
2. 47
